Target: T1, human DLL3 (human, UniProt Q9NYJ7 27-492, limits assumed)
T1 construct: also called hDLL3; DLL3 protein
T1 sequence: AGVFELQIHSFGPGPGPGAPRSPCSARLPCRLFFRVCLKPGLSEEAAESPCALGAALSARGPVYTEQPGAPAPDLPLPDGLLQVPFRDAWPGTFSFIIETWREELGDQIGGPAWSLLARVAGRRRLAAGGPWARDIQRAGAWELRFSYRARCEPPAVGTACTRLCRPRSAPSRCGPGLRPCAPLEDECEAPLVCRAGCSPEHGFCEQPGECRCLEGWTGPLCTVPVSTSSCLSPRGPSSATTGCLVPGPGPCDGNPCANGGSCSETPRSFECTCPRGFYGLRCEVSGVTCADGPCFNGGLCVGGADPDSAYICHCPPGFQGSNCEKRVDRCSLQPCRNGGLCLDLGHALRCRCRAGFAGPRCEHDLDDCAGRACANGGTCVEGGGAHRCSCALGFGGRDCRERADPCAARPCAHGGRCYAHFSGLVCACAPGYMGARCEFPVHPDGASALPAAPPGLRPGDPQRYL
Test: screen on immobilized hDLL3 or h293-hDLL3 cells
measurement.type: binding result

// worked examples, binding result included
SC16.131 (antibody, V domains shown, murine mAb) VH: QVQLKESGPGLVAPSQSLSITCTVSGFSLTNYGVHWVRQPPGKGLEWLGVIWAGGITNYNSALMSRLSISEDNSKSQVFLKMNSLQTDDTAMYYCARNLGPYAMDYWGQGTSVTVSS VL: DIQMNQSPSSLSASLGDTITITCHVSQNINVWLSWYQQKPGNIPKLLIQKASNLHTGVPSRFSGSGSGTGFTLTISSLQPEDIATYYCQQGQSYPFTFGSGTKLEIK ... binds
SC16.10 (antibody, V domains shown, murine mAb) VH: QVTLKESGPGILQSSQTLSLTCSFSGFSLSTSGMGVGWIRQPSGKGLEWLAHIWWDDVKRYNPVLKSRLTISKDTSSSQVFLKIASVDTADTATYYCARLVDDLYYFDYWGQGTTLTVSS VL: QIVLTQSPAIMSASLGERVTMTCTASSSVSSSYLHWYQQKPGSSPKLWIYSTSNLASGVPTRFSGSGSGTSYSLTISSMEAEDAATYYCHQYHRSPFTFGSGTKLEIK ... binds
SC16.117 (antibody, V domains shown, murine mAb) VH: QVQLKESGPGLVAPSQSLSITCTVSGFSLTNYGVHWVRQPPGKGLEWLGVIWAGGITNYNSALMSRLSISEDNSKSQVFLKMNSLQTDDTAMYYCARNLGPYAMDYWGQGTSVTVSS VL: DIQMNQSPSSLSASLGDTITITCHVSQNINVWLSWYQQKPGNIPKLLIQKASNLHTGVPSRFSGSGSGTGFTLTISSLQPEDIATYYCQQGQSYPFTFGSGTKLEIK ... binds
SC16.139 (antibody, V domains shown, murine mAb) VH: EVQLQQSGPELVKPGASVKMSCKASGYTFTNYVMHWVKQKPGQGLEWIGYINPYNDGTKYNEKFKGKATLTSDKSSTTAYMALSSLTSEDSAVYYCAVAYYSNWGFAYWGQGTLVTVSA VL: DIVMTQSHKFMSTSVGDRVSITCKASQDVNTAVGWYQQKPGQSPKLLIYSASYRYTGVPDRFTGSGSGTDFTFTISSVQAEDLAVYYCQQHYSSPYTFGGGTKLEIK ... binds

Prompt: Recorded binding result of SC16.130 (antibody, V domains shown, murine mAb) VH: EVQLQQSGPELVKPGASVKMSCKASGYTFTSYVMHWVKQKPGQGLEWIGYINPYNDGTEYNEKFKGKATLTSDKSSSTAYMELSSLTSEDSAVYYCARGVYDGYSYFDYWGQGTTLTVSS VL: DIQLTQSPASLSASVGETVTITCRASGSIHNYLAWYQQKQGKSPQLLVYNAKTLVDGVPSRFSGSGSGTQYSLKINSLQPEDFGYYYCQHFWTTPWTFGGGTKLEIK , please.
Completion: binds

Prompt: Okay, and SC16.138 (antibody, V domains shown, murine mAb) VH: QVQLKESGPGLVAPSQSLSITCTVSGFSLTDYGVSWIRQPPGKGLEWLGVVWGGGSTYYNSALKSRLSISKDNSKSQVFLKMNSLQTDDTAMYYCAKQRGQYGAYWGQGTLVTVSA VL: DIQMTQSPASQSASLGESVTITCLASQTIGTWLAWYQQKPGKSPQLLIYSATSLADGVPSRFSGSGSGTKFSFKISSLQAEDFVSYYCQQLYSTPWTFGGGTKLEIK ?
Completion: binds

Prompt: Okay, and SC16.141 (antibody, V domains shown, murine mAb) VH: QVQLKQSGPGLVAPSQSLFITCTVSGFSLTSYEINWVRQPPGKGLEWLGVIWTGGSTNYNSALISRLSISKDNSKSLVFLKMNSLQTDDTAIYYCVRGVYAMDYWGQGTSVTVSS VL: DIKMTQSPSSMYASLGERVTITCKASQDINSYLSWFQQKPGKSPKTLIYRANRLVDGVPSRFSGSGSGQDYSLTISSLEYEDMGIYYCLQYDEFPFTFGSGTKLEIK ?
Completion: binds
